Each record here notes measured inhibition.
- ASSAY DETAILS: growth suppression of yeast trafficking mutant, preliminary HTS, modulators of trafficking downstream of Golgi apparatus project, 1536-format plate, OD 615 nm (AID 637)
- PROTOCOL CONDITIONS: yeast transport mutant growth, absorbance 615 nm, 18 h; active compounds read high
Lab book: enter the figure in %, no units written.

Use the examples below as a reference point.
CC(C)(C)c1nnc(NC(=O)C2CCN(c3ncccn3)CC2)s1    -0.82
Cc1ccc(C)c(-c2nc3ccc(N)cc3[nH]2)c1    5.67
CC1Cc2ccccc2N1C(=O)COC(=O)Cn1nnc(-c2ccccc2)n1 (stereo unspecified)    3.65
Cn1nnnc1SCC1=C(C(=O)O)N2C(=O)[C@@H](NC(=O)[C@H](O)c3ccccc3)[C@H]2SC1    0.33
Cc1nc(-c2cccc(-c3noc(C)n3)c2)no1    -1.48
COc1ccccc1NC(=O)N1CCN(c2ccccc2F)CC1    1.11
CCc1c(C)nc(N)n2c(SCC(=O)N3CCCc4ccccc43)nnc12    -0.32
Cc1ccc(-n2ncc3c(=O)n(CC(=O)NCc4ccco4)cnc32)cc1    1.77

inhibition for `Cc1cc2c(cc(C(=O)OCC(=O)NCc3cccs3)n2C(C)C)o1` ?
5.9

Here is the next molecule: `CCOC(=O)Nc1ccc2c(c1)N(C(=O)CCN1CCOCC1)c1ccccc1S2`
-2.55

Now give it for `Cc1[nH]nc2c1C(=O)CCC2` too.
-0.18

----------
- ASSAY DETAILS: 384-well plate pilot, post-Golgi transport modulator project, inhibition of yeast transport mutant growth (AID 636)
- PROTOCOL CONDITIONS: absorbance 615 nm, about 18 h, active compounds read high
READOUT: inhibition (%)
Field format: number, assumed %, no unit text.

Solved entries (count: 6):
COc1ccccc1Nc1nc(N)nc(-c2cc3ccccc3o2)n1    -2.97
CCCCNC(=O)C(C#N)c1nc2ccccc2nc1N1CCCC1 (stereo not given)    -4.93
O=C(CN1C(=O)c2cccc3cccc1c23)Nc1ccccc1C(=O)NCc1ccco1    -1.49
CN(C)S(=O)(=O)c1cccc(C(=O)Nc2cccnc2)c1    -4.93
CN1CCCC(OC(=O)c2ccc3c(c2)OCCO3)C1 (stereo not given)    -4.4
CCOc1cc2oc(=O)c3c(c2cc1Cl)CCC3    -3.84

Recorded inhibition for `Cc1cc(=O)[nH]c(S/C=C/c2ccccc2)n1` , please?
-3.12

Now the same for CC(NC(=O)NC12CC3CC(CC(C3)C1)C2)C1CCCO1 (stereo not given)
-3.7

Note, next up: `CCCCCCn1c(CN2CCN(Cc3ccccc3)CC2)nc2c1c(=O)n(C)c(=O)n2C`
-5.48

Now the same for Cc1cc(=O)n2nc(N3CCCC(C(=O)N4CCN(C)CC4)C3)sc2n1 (stereo not given)
-5.81

----------
Entries and their differential viability (reversal)
- ASSAY DETAILS: reversal of MRP1-mediated doxorubicin resistance, pilot screen, H69AR cells, doxorubicin co-treatment (AID 601)
- PROTOCOL CONDITIONS: H69AR cells + 2 uM doxorubicin, CellTiter-Glo, 72 h; at 10 µM; active compounds read high
Provide only the numeric value, understood in %.

Worked examples, 6 compounds total:
O=C(Cc1ccsc1-c1ccccc1)NO    0.35
O=C(CSc1nnc2scc(-c3ccccc3)n12)Nc1nsc(-c2ccccc2)n1    -14.1
Cc1ccc(C)c(-c2nc3ccc(N)cc3[nH]2)c1    -15.6
Cc1ccnc(NS(=O)(=O)c2ccc(NC(=O)Cc3cccs3)cc2)n1    8.61
O=C1C2ON(c3ccccc3)C(c3cccnc3)C2C(=O)N1c1ccccc1 (stereo unspecified)    2.77
CCN1CCN(C(=O)c2cc3c(=O)n(C)c4ccccc4c3n2C)CC1    -9.27

So what does the record say about differential viability (reversal) for `Cc1ccc(NC(=O)c2ccco2)c(NC(=O)c2cccs2)c1` ?
-1.08

Try the compound `CCN(CC)CCOC(=O)c1ccc(NC(=O)COc2cc(=O)n(CC)c3ccccc23)cc1`
26.6

Thanks! And `O=C(COC(=O)c1cc(S(=O)(=O)N2CCOCC2)cs1)c1ccccc1` ?
16.3

How about `Cn1c(CN2CCCCC2)nc2cc(NC(=O)c3ccccc3)ccc21` ?
-5.74

Field entry: `N#Cc1c(NCc2ccccc2)ccnc1NCc1cccnc1`
4.3
